Each recorded value in this set is attributed to patent US5578573A.

- target of assay: HIV integrase (Human immunodeficiency virus type 1 group M subtype B)
- Construct: The HIV integrase used in these assays was expressed in E. coli; made in house; host or cells: E. coli
- assay text: biochemical
- Format: biochemical
- assay context: 50 μM peptide; results normalized to His-Cys-Lys-Phe-Trp-Trp-NH2 (SEQ ID NO: 19)
Residues, ends and D or L forms follow the SMILES beside them.
assay readout: % Inhibition of HIV integrase activity (%)
Supply the numeric figure in %, leaving out any unit text.

// Input: NCCCC[C@H](NC(=O)[C@H](CS)NC(=O)[C@@H](N)Cc1c[nH]cn1)C(=O)N[C@@H](Cc1ccccc1)C(=O)N[C@@H](Cc1c[nH]c2ccccc12)C(=O)N[C@@H](Cc1ccc(O)cc1)C(N)=O [compound 20] (H-HCKFWY-NH2) . Output its % Inhibition of HIV integrase activity only. 75

// Input: CSCC[C@H](NC(=O)[C@H](Cc1c[nH]c2ccccc12)NC(=O)[C@H](Cc1ccccc1)NC(=O)[C@H](CCCCN)NC(=O)[C@H](CS)NC(=O)[C@@H](N)Cc1c[nH]cn1)C(N)=O [compound 14] (H-HCKFWM-NH2) . Output its % Inhibition of HIV integrase activity only. 42

// Input: NCCCC[C@H](NC(=O)[C@H](CS)NC(=O)[C@@H](N)Cc1c[nH]cn1)C(=O)N[C@@H](Cc1ccccc1)C(=O)N[C@@H](Cc1c[nH]c2ccccc12)C(=O)N[C@@H](CC(N)=O)C(N)=O [compound 4] (H-HCKFWN-NH2) . Output its % Inhibition of HIV integrase activity only. 30

// Input: C[C@@H](O)[C@H](NC(=O)[C@H](Cc1c[nH]c2ccccc12)NC(=O)[C@H](Cc1ccccc1)NC(=O)[C@H](CCCCN)NC(=O)[C@H](CS)NC(=O)[C@@H](N)Cc1c[nH]cn1)C(N)=O [compound 18] (H-HCKFWT-NH2) . Output its % Inhibition of HIV integrase activity only. 8

---

- target of assay: UniProt P04585
Residues, ends and D or L forms follow the SMILES beside them.
Assign IC50 to each entry below.
Units required after the number.

// Input: C[C@H](N)C(=O)N[C@@H](CS)C(=O)N[C@@H](CCCCN)C(=O)N[C@@H](Cc1ccccc1)C(=O)N[C@@H](Cc1c[nH]c2ccccc12)C(=O)N[C@@H](Cc1c[nH]c2ccccc12)C(N)=O [compound 22] (H-ACKFWW-NH2) . Output its IC50 only. 51 µM

// Input: C[C@H](NC(=O)[C@H](CS)NC(=O)[C@@H](N)Cc1c[nH]cn1)C(=O)N[C@@H](Cc1ccccc1)C(=O)N[C@@H](Cc1c[nH]c2ccccc12)C(=O)N[C@@H](Cc1c[nH]c2ccccc12)C(N)=O [compound 24] (H-HCAFWW-NH2) . Output its IC50 only. 49 µM

// Input: C[C@H](NC(=O)[C@H](Cc1ccccc1)NC(=O)[C@H](CCCCN)NC(=O)[C@H](CS)NC(=O)[C@@H](N)Cc1c[nH]cn1)C(=O)N[C@@H](Cc1c[nH]c2ccccc12)C(N)=O [compound 26] (H-HCKFAW-NH2) . Output its IC50 only. 150 µM

// Input: C[C@H](NC(=O)[C@@H](N)Cc1c[nH]cn1)C(=O)N[C@@H](CCCCN)C(=O)N[C@@H](Cc1ccccc1)C(=O)N[C@@H](Cc1c[nH]c2ccccc12)C(=O)N[C@@H](Cc1c[nH]c2ccccc12)C(N)=O [compound 23] (H-HAKFWW-NH2) . Output its IC50 only. 30 µM

// Input: N=C(N)NCCC[C@H](NC(=O)[C@H](Cc1c[nH]c2ccccc12)NC(=O)[C@H](Cc1ccccc1)NC(=O)[C@H](CCCCN)NC(=O)[C@H](CS)NC(=O)[C@@H](N)Cc1c[nH]cn1)C(N)=O [compound 3] (H-HCKFWR-NH2) . Output its IC50 only. 8 µM

// Input: NCCCC[C@H](NC(=O)[C@H](CS)NC(=O)[C@@H](N)Cc1cnc[nH]1)C(=O)N[C@@H](Cc1ccccc1)C(=O)N[C@@H](Cc1c[nH]c2ccccc12)C(=O)N[C@@H](Cc1c[nH]c2ccccc12)C(N)=O [compound 19] (H-HCKFWW-NH2) . Output its IC50 only. 2 µM
